# Assay system: UniProt:O75385
# Protocol details: ADP-Glo kinase assay
# Format: biochemical
Parameter: pIC50
pIC50 (log units): -log10 of the concentration in mol/L.

Check out these entries, answers already filled in.
• CNC(=O)c1ccccc1Nc1nc(Nc2cc(OC)ccc2C)ncc1Br [6m] = 7.49
• CNC(=O)c1ccccc1Nc1nc(Nc2ccc(N3CCOCC3)cc2OC)ncc1C(F)(F)F [6c] = 7.21
• CNC(=O)c1ccccc1Nc1nc(Nc2ccc3c(c2)CC(=O)N3)ncc1Cl [6f] = 7.68

Form field, pIC50 with UniProt:O75385, item CNC(=O)c1ccccc1Nc1nc(Nc2ccc(N3CCOCC3)cc2OC)ncc1Cl [6a] : 6.82

Form field, pIC50 with UniProt:O75385, item CNC(=O)c1ccccc1Nc1nc(Nc2cc(OC)c(OC)c(OC)c2)ncc1C(F)(F)F [6p] : 8.00

Form field, pIC50 with UniProt:O75385, item CNC(=O)c1ccccc1Nc1nc(Nc2ccc3c(c2)CCC(=O)N3)ncc1Cl [6e] : 7.66

Form field, pIC50 with UniProt:O75385, item CNC(=O)c1ccccc1Nc1nc(Nc2cc(OC)ccc2C)ncc1C(F)(F)F [6l] : 7.42

Form field, pIC50 with UniProt:O75385, item CNC(=O)c1ccccc1Nc1nc(Nc2cc(OC)c(OC)c(OC)c2)ncc1Cl [6o] : 8.10

Form field, pIC50 with UniProt:O75385, item CNC(=O)c1ccccc1Nc1nc(Nc2ccc(N3CCOCC3)cc2OC)ncc1Br [6b] : 6.85

====

# Assay system: ULK1 (Homo sapiens, UniProt O75385)
# Sequence (O75385 1-1050): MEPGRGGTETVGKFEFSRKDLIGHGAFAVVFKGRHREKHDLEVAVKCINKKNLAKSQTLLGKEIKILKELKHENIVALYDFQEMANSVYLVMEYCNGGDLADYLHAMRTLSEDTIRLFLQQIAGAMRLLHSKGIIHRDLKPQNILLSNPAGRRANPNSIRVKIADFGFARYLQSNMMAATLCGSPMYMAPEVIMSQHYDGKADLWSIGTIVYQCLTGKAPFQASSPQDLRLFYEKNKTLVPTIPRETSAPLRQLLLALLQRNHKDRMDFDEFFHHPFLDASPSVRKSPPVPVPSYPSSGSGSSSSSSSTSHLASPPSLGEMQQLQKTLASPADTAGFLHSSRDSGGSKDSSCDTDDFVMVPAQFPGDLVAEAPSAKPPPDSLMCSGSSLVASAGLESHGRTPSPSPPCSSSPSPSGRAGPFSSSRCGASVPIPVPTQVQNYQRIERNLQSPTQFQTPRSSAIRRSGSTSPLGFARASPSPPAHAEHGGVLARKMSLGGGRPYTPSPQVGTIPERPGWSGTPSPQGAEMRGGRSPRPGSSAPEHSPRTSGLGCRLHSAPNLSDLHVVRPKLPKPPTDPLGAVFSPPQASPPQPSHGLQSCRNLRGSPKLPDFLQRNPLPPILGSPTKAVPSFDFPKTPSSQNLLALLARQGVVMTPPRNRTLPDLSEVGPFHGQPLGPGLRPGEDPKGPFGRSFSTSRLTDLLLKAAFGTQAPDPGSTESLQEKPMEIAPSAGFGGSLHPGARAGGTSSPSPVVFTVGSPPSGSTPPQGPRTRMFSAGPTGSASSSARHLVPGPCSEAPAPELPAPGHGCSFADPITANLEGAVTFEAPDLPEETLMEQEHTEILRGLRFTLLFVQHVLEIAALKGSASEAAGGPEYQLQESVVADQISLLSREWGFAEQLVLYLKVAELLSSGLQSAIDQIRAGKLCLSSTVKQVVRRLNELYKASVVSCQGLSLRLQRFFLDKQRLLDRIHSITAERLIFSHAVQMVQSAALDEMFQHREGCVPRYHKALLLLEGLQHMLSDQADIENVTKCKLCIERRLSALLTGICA
# Protocol details: ADP-Glo kinase assay
# Type: biochemical
Parameter: IC50 (nM)
Write down the numeric answer in nM and omit the unit.

Check out these entries, answers already filled in.
- CNC(=O)c1ccccc1Nc1nc(Nc2cc(OC)ccc2C)ncc1Cl: 292
- CNC(=O)c1ccccc1Nc1nc(Nc2ccc3c(c2)OCCO3)ncc1Cl: 218

IC50 reported for this compound CNC(=O)c1ccccc1Nc1ccnc(Nc2cc(OC)c(OC)c(OC)c2)n1 : 603

====

# Assay system: ULK1 (NanoBRET) (Homo sapiens, UniProt O75385)
# Protocol details: NanoBRET cellular target engagement
# Assay type: cell-based
pIC50: −log10 of the molar value.
Respond with true for pIC50 values of 8 and above, false for values below.

* CNC(=O)c1ccccc1Nc1nc(Nc2ccc3c(c2)CCC(=O)N3)ncc1C(F)(F)F [6d] | false
* FC(F)(F)c1cnc(Nc2ccc3c(c2)CCNC3)nc1NC1CC1 [SBP-5147, reference compound] | false
* O=C1CCc2cc(Nc3ncc(C(F)(F)F)c(NC4CC4)n3)ccc2N1 [SBP-7501, reference compound] | false

Check this compound for pIC50 at or above 8: CNC(=O)c1ccccc1Nc1nc(Nc2cc(OC)c(OC)c(OC)c2)ncc1Cl [6o]
true

====

# Assay system: ULK2 (Homo sapiens)
# Protocol details: ADP-Glo kinase assay
# Format: biochemical
Parameter: IC50 (nM)
Write down the numeric answer in nM and omit the unit.

Check out these entries, answers already filled in.
• CNC(=O)c1ccccc1Nc1nc(Nc2ccc3c(c2)CCC(=O)N3)ncc1C(F)(F)F [6d] = 172
• CNC(=O)c1ccccc1Nc1nc(Nc2ccc3c(c2)CCC(=O)N3)ncc1Cl [6e] = 1440
• CNC(=O)c1ccccc1Nc1nc(Nc2cc(OC)c(OC)c(OC)c2)ncc1C(F)(F)F [6p] = 7

Attention now shifts to the item below.
Form field, IC50 with ULK2 (Homo sapiens), item CNC(=O)c1ccccc1Nc1ccnc(Nc2cc(OC)c(OC)c(OC)c2)n1 [6q] : 30000

====

# Assay system: kinase domain of ULK2 (Homo sapiens)
# Sequence (Q8IYT8 1-276 limits assumed): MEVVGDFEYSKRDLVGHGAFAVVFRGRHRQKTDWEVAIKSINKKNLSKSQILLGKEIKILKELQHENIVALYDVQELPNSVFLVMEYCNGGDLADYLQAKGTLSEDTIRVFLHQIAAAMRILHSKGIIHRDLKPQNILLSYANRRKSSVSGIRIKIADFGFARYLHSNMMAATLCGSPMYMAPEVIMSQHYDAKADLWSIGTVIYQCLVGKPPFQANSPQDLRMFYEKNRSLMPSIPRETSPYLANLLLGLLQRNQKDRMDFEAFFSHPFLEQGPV
# Experimental context: binder
Parameter: ULK2 PTS (ºC) (°C)
Write down the numeric answer in °C and omit the unit.

• CNC(=O)c1ccccc1Nc1nc(Nc2cccc(OC)c2)ncc1Cl = 1.38
• CNC(=O)c1ccccc1Nc1nc(Nc2ccc(N3CCOCC3)cc2OC)ncc1Br = 4.13
• CNC(=O)c1ccccc1Nc1nc(Nc2ccc3c(c2)CCC(=O)N3)ncc1Cl = 0.43

Attention now shifts to the item below.
ULK2 PTS (ºC) reported for this molecule CNC(=O)c1ccccc1Nc1nc(Nc2cc(N3CCOCC3)cc(N3CCOCC3)c2)ncc1Br : 16.23

====

# Assay system: ULK2 (Homo sapiens, UniProt Q8IYT8)
# Sequence (Q8IYT8 whole entry): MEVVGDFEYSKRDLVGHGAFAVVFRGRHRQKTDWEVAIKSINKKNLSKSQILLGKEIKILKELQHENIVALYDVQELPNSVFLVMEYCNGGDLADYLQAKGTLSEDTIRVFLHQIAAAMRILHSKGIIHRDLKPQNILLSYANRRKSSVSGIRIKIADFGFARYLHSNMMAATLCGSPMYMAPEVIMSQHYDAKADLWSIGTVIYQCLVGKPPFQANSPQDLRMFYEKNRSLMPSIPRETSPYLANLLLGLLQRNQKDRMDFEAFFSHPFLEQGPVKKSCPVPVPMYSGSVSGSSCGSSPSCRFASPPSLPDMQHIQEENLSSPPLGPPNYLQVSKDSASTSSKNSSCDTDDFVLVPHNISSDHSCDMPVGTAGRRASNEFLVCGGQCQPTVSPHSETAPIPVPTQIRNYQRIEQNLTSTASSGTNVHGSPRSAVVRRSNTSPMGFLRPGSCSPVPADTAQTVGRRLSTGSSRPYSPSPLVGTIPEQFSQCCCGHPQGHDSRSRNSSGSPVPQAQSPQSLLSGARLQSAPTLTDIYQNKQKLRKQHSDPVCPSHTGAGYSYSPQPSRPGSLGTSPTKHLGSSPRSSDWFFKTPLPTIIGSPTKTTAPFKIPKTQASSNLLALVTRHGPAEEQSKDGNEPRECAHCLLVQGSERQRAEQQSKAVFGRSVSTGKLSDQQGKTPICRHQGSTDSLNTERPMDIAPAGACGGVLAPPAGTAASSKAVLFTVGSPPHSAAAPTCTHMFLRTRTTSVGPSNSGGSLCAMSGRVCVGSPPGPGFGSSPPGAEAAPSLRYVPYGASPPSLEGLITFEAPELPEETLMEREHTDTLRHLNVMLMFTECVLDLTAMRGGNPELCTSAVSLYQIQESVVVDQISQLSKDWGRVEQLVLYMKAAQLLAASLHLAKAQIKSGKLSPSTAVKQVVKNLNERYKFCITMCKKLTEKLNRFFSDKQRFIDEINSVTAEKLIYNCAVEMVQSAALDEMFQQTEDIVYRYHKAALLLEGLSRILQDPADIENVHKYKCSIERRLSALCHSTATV
# Protocol details: biochemical
Parameter: IC50

Form field, IC50 with ULK2 (Homo sapiens, UniProt Q8IYT8), item CNC(=O)c1ccccc1Nc1nc(Nc2cccc(OC)c2)ncc1Cl [6n] : > 3000 nM

Form field, IC50 with ULK2 (Homo sapiens, UniProt Q8IYT8), item CNC(=O)c1ccccc1Nc1nc(Nc2cc(OC)ccc2C)ncc1Cl [6k] : 893 nM

Form field, IC50 with ULK2 (Homo sapiens, UniProt Q8IYT8), item CNC(=O)c1ccccc1Nc1nc(Nc2ccc(N3CCOCC3)cc2OC)ncc1Br [6b] : > 3000 nM

Form field, IC50 with ULK2 (Homo sapiens, UniProt Q8IYT8), item CNC(=O)c1ccccc1Nc1nc(Nc2ccc3[nH]ccc3c2)ncc1Cl [6g] : > 3000 nM

Form field, IC50 with ULK2 (Homo sapiens, UniProt Q8IYT8), item CNC(=O)c1ccccc1Nc1nc(Nc2cc(OC)ccc2C)ncc1Br [6m] : > 3000 nM

Form field, IC50 with ULK2 (Homo sapiens, UniProt Q8IYT8), item CNC(=O)c1ccccc1Nc1nc(Nc2ccc3[nH]ccc3c2)ncc1Br [6h] : > 3000 nM

Form field, IC50 with ULK2 (Homo sapiens, UniProt Q8IYT8), item CNC(=O)c1ccccc1Nc1ccnc(Nc2cc(OC)c(OC)c(OC)c2)n1 [6q] : > 3000 nM

Form field, IC50 with ULK2 (Homo sapiens, UniProt Q8IYT8), item CNC(=O)c1ccccc1Nc1nc(Nc2cc(OC)ccc2C)ncc1C(F)(F)F [6l] : 1960 nM

Form field, IC50 with ULK2 (Homo sapiens, UniProt Q8IYT8), item CNC(=O)c1ccccc1Nc1nc(Nc2cc(N3CCOCC3)cc(N3CCOCC3)c2)ncc1Cl [6s] : 180 nM

Form field, IC50 with ULK2 (Homo sapiens, UniProt Q8IYT8), item CNC(=O)c1ccccc1Nc1nc(Nc2ccc3c(c2)OCCO3)ncc1Cl [6j] : > 3000 nM

Form field, IC50 with ULK2 (Homo sapiens, UniProt Q8IYT8), item CNC(=O)c1ccccc1Nc1nc(Nc2cc(N3CCOCC3)cc(N3CCOCC3)c2)ncc1Br [6t] : 59 nM

Form field, IC50 with ULK2 (Homo sapiens, UniProt Q8IYT8), item CNC(=O)c1ccccc1Nc1nc(Nc2cc(N3CCOCC3)cc(N3CCOCC3)c2)ncc1C(F)(F)F [6r] : 19 nM

Form field, IC50 with ULK2 (Homo sapiens, UniProt Q8IYT8), item CNC(=O)c1ccccc1Nc1nc(Nc2ccc3c(c2)CC(=O)N3)ncc1Cl [6f] : > 3000 nM
